- Tested on: RAW-Dual
- test.summary: NF-kB SEAP reporter activity, fold change vs agonist alone; higher = enhanced NF-kB activity
- setup.conditions: library stock concentration (final ~1000-fold dilution): 10 mM water; cytotoxicity flag (confluency mask): not cytotoxic; agonist: Imiquimod (TLR7) […]
Whole data set: some 2,900 compounds, median “NF-kB SEAP reporter activity, fold change vs agonist alone” near 0.99, cut for the highest 2% near 2.6. For the sample, the highest values were picked, then their nearest neighbours and some compounds at random.
endpoint.label: NF-kB SEAP reporter activity
I only need the number, thanks.

CSCCNc1nc(SCCC(F)(F)F)nc2c1ncn2C1OC(COP(=O)(O)OP(=O)(O)C(Cl)(Cl)P(=O)(O)O)C(O)C1O (stereo not drawn) = 0.972
Nc1ccn(C2OC(CO)C(O)C2O)c(=O)n1 (stereo not drawn) = 1.46

Prompt: Report measured NF-kB SEAP reporter activity on RAW-Dual; entry: O=C(O)[C@H](O)Cc1ccc(O)c(O)c1
Completion: 0.919

Prompt: GET NF-kB SEAP reporter activity where system = RAW-Dual and item = COc1cc2c(cc1OC)C(=O)C(CC1CCN(Cc3ccccc3)CC1)C2.Cl (stereo not drawn)
Completion: 0.84

Prompt: Output reported NF-kB SEAP reporter activity of the compound CCC(=O)OC(OP(=O)(CCCCc1ccccc1)CC(=O)N1CC(C2CCCCC2)CC1C(=O)O)C(C)C (stereo not drawn) on RAW-Dual.
Completion: 0.795

Prompt: Write NF-kB SEAP reporter activity of Cl.Cl.c1cc(-c2cnn3cc(-c4ccc(OCCN5CCCCC5)cc4)cnc23)ccn1 ; system used: RAW-Dual
Completion: 0.944

Prompt: Please look at Cl.NCCCCC(N)C(=O)O (stereo not drawn) and tell me its recorded NF-kB SEAP reporter activity on RAW-Dual.
Completion: 0.925

Prompt: Would you please give the reported NF-kB SEAP reporter activity of N=C(N)NCCCC(N)C(=O)NCC(=O)NC(CC(=O)O)C(=O)O (stereo not drawn) with RAW-Dual?
Completion: 0.924
